Test: Pharmacokinetics of Compound 1 solid forms in plasma following single PO administration (IV bolus reference) in male Sprague Dawley rats
Type: in vivo
Conditions: male, Sprague-Dawley, rat, plasma, iv, 1 mg/kg, IV bolus 1 mg/kg, male Sprague-Dawley rats, historical data (reference); read-out: Absolute % F
measured_attribute: bioavailability (%)
# unit: % | format: bare number

Input line: Quick one: bioavailability for C[C@@H](Nc1nc(N[C@H](C)C(F)(F)F)nc(-c2cccc(Cl)n2)n1)C(F)(F)F [Compound 1] ?
Output line: 100

Values compiled from patent US12679820B2.
